# pIC50 per record follows
target: p38 MAPKα isoform (MAPK14) (Homo sapiens (Human)); test: p38 MAPKα enzyme inhibition (FRET, Z-LYTE, Method 2)
Sequence (Q16539 whole entry, canonical isoform): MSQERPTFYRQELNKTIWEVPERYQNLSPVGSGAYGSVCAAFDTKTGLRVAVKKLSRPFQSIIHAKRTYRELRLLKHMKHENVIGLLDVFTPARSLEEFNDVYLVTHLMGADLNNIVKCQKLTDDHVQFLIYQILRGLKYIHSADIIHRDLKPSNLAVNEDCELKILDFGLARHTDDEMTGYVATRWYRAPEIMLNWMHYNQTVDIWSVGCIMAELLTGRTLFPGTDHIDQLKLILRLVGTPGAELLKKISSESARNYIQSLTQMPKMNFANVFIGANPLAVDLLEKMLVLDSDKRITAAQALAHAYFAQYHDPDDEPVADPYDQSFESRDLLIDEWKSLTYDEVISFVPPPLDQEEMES
pIC50: −log10 of the molar value.

{"Compound": "COc1c(NC(=O)Nc2ccc(Oc3ccnc(NCc4ccccn4)c3)c3ccccc23)cc(C(C)(C)C)cc1[S+](C)[O-] (stereo not drawn)", "Relation Sign": "=", "pIC50": 8.10}
{"Compound": "COc1cc(Nc2cc(Oc3ccc(NC(=O)Nc4cc(C(C)(C)C)cc(CC(N)=O)c4OC)c4ccccc34)ccn2)cc(C(=O)NCCN2CCOCC2)c1", "Relation Sign": "=", "pIC50": 7.68}
{"Compound": "COc1cc(Nc2cc(Oc3ccc(NC(=O)Nc4cc(C(C)(C)C)cc([S+](C)[O-])c4OC)c4ccccc34)ccn2)cc(C(=O)NCCN2CC[S+]([O-])CC2)c1 (stereo not drawn)", "Relation Sign": "=", "pIC50": 7.80}
{"Compound": "COCCOCCOCCOc1cc(Nc2nccc(Oc3ccc(NC(=O)Nc4cc(C(C)(C)C)cc(C(=O)NCCN5CCOCC5)c4OC)c4ccccc34)n2)cc(OC)c1", "Relation Sign": "=", "pIC50": 6.73}
{"Compound": "COc1c(CC(N)=O)cc(C(C)(C)C)cc1NC(=O)Nc1ccc(Oc2ccnc(Nc3cccc(OS(C)(=O)=O)c3)c2)c2ccccc12 [38(r)]", "Relation Sign": "=", "pIC50": 6.82}
{"Compound": "COc1c(CNC(C)=O)cc(C(C)(C)C)cc1NC(=O)Nc1ccc(Oc2ccnc(Nc3cc(OCCN4CCOCC4)cc(C(F)(F)F)c3)c2)c2ccccc12", "Relation Sign": "<", "pIC50": 5.90}
{"Compound": "COc1cccc(Nc2cc(Oc3ccc(NC(=O)Nc4cc(C(C)(C)C)cc(C(=O)NCCN5CCOCC5)c4OC)c4ccccc34)ccn2)c1", "Relation Sign": "=", "pIC50": 6.09}
{"Compound": "COCCOCCOCCOc1cc(Nc2cc(Oc3ccc(NC(=O)Nc4cc(C(C)(C)C)cc(C(=O)NCCN5CCOCC5)c4OC)c4ccccc34)ccn2)cc(OC)c1", "Relation Sign": "=", "pIC50": 6.64}
{"Compound": "COc1c(NC(=O)Nc2ccc(Oc3ccnc(NCc4ccccc4)n3)c3ccccc23)cc(C(C)(C)C)cc1P(C)(C)=O", "Relation Sign": "=", "pIC50": 8.05}

----------
tested on: PBMCs; assay: LPS-induced IL-8 release in PBMC cells (assay b); format: cell-based, human; details: Homo sapiens, PBMC; LPS-stimulated PBMCs; read-out: IC50 Values for Inhibition of Cytokine Release, PBMCs IL-8
pIC50: −log10 of the molar value.
Measure: pIC50

{"Compound": "COc1c(NC(=O)Nc2ccc(Oc3ccnc(Nc4ccccc4)n3)c3ccccc23)cc(C(C)(C)C)cc1S(C)(=O)=O", "Measure": "pIC50", "Reported Measurement": 7.76}
{"Compound": "COc1c(NC(=O)Nc2ccc(Oc3ccnc(Nc4ccc5c(c4)C(=O)NC5)n3)c3ccccc23)cc(C(C)(C)C)cc1P(C)(C)=O", "Measure": "pIC50", "Reported Measurement": 8.26}
{"Compound": "COc1c(NC(=O)Nc2ccc(Oc3ccnc(NC(=O)CN4C[C@@H](C)O[C@@H](C)C4)c3)c3ccccc23)cc(C(C)(C)C)cc1P(C)(C)=O", "Measure": "pIC50", "Reported Measurement": 8.66}
{"Compound": "COc1c(NC(=O)Nc2ccc(Oc3ccnc(Nc4ccccc4)c3)c3ccccc23)cc(C(C)(C)C)cc1C(=O)NCCN1CCC1", "Measure": "pIC50", "Reported Measurement": 8.42}
{"Compound": "COc1c(NC(=O)Nc2ccc(Oc3ccnc(Nc4ccccc4)c3)c3ccccc23)cc(C(C)(C)C)cc1[S+](C)[O-] (racemic) [Example 12]", "Measure": "pIC50", "Reported Measurement": 8.44}
{"Compound": "COCCOCCOCCNC(=O)c1cc(Nc2nccc(Oc3ccc(NC(=O)Nc4cc(C(C)(C)C)cc(CNC(=O)CN(C)C)c4OC)c4ccccc34)n2)cc(OC)c1", "Measure": "pIC50", "Reported Measurement": 9.40}
{"Compound": "COc1c(CC(N)=O)cc(C(C)(C)C)cc1NC(=O)Nc1ccc(Oc2ccnc(NCc3ccccn3)c2)c2ccccc12", "Measure": "pIC50", "Reported Measurement": 8.35}
{"Compound": "COc1c(CNS(C)(=O)=O)cc(C(C)(C)C)cc1NC(=O)Nc1ccc(Oc2ccnc(Nc3ccccc3)c2)c2ccccc12", "Measure": "pIC50", "Reported Measurement": 8.36}

----------
# collection of pIC50 values tested on Syk (Homo sapiens (Human))
pIC50: −log10 of the molar value.

{"Molecule": "COc1cccc(Nc2cc(Oc3ccc(NC(=O)Nc4cc(C(C)(C)C)cc(CC(N)=O)c4OC)c4ccccc34)ccn2)c1", "Relation Sign": "=", "pIC50": 6.28}
{"Molecule": "C#Cc1cc(Nc2cc(Oc3ccc(NC(=O)Nc4cc(C(C)(C)C)cc(P(C)(C)=O)c4OC)c4ccccc34)ccn2)cc(C(=O)NCCOCCOCCOC)c1", "Relation Sign": "<", "pIC50": 5.91}
{"Molecule": "COc1cc(Nc2cc(Oc3ccc(NC(=O)Nc4cc(C(C)(C)C)cc([S+](C)[O-])c4OC)c4ccccc34)ccn2)ccc1C(=O)NCCN1CCOCC1 (stereo not drawn)", "Relation Sign": "=", "pIC50": 7.01}

----------
tested on: PBMCs; assay: IL-2 release in CD3/CD28 stimulated PBMC cells (assay c); format: cell-based; details: Homo sapiens, read-out: IC50 Values for Inhibition of Cytokine Release, PBMCs IL-2

{"Item Smiles": "COc1cccc(Nc2cc(Oc3ccc(NC(=O)Nc4cc(C(C)(C)C)cc(CC(N)=O)c4OC)c4ccccc34)ccn2)c1", "IC50 [nM]": 117}
{"Item Smiles": "COc1cc(Nc2cc(Oc3ccc(NC(=O)Nc4cc(C(C)(C)C)cc(CP(C)(C)=O)c4OC)c4ccccc34)ccn2)cc(C(=O)NCCN2CCOCC2)c1", "IC50 [nM]": 84.5}
{"Item Smiles": "COc1c(NC(=O)Nc2ccc(Oc3ccnc(Nc4cnccn4)c3)c3ccccc23)cc(C(C)(C)C)cc1P(C)(C)=O", "IC50 [nM]": 58.6}

----------
test system: PBMCs; experiment: LPS-induced IL-8 release in PBMC cells (assay b); assay type: cell-based, human; settings: Homo sapiens, PBMC; LPS-stimulated PBMCs; read-out: IC50 Values for Inhibition of Cytokine Release, PBMCs IL-8
# IC50 per record follows
Measure: IC50 (nM)

{"Molecule": "COc1c(NC(=O)Nc2ccc(Oc3ccnc(Nc4cnn(C)c4)n3)c3ccccc23)cc(C(C)(C)C)cc1P(C)(C)=O [15(s)]", "Measure": "IC50", "Reported Measurement": 1.4}
{"Molecule": "COc1cc(Nc2cc(Oc3ccc(NC(=O)Nc4cc(C(C)(C)C)cc(CC(N)=O)c4OC)c4ccccc34)ccn2)ccc1C(=O)NCCN1CCOCC1 [Example 70]", "Measure": "IC50", "Reported Measurement": 2.3}
{"Molecule": "COc1cc(Nc2cc(Oc3ccc(NC(=O)Nc4cc(C(C)(C)C)cc([S+](C)[O-])c4OC)c4ccccc34)ccn2)cc(C(=O)NCCN2CC[S+]([O-])CC2)c1 (stereo not drawn) [Example 69]", "Measure": "IC50", "Reported Measurement": 2.3}
{"Molecule": "COc1c(NC(=O)Nc2ccc(Oc3ccnc(Nc4cc(C#N)cc(OCCN5CCOCC5)c4)c3)c3ccccc23)cc(C(C)(C)C)cc1[S+](C)[O-] (stereo not drawn) [Example 51]", "Measure": "IC50", "Reported Measurement": 1.3}
{"Molecule": "COCCOCCOCCOc1cc(Nc2nccc(Oc3ccc(NC(=O)Nc4cc(C(C)(C)C)cc(OCP(C)(C)=O)c4OC)c4ccccc34)n2)cc(OC)c1 [Example 6]", "Measure": "IC50", "Reported Measurement": 1.9}
{"Molecule": "COc1cccc(Nc2cc(Oc3ccc(NC(=O)Nc4cc(C(C)(C)C)cc(CNC(C)=O)c4OC)c4ccccc34)ccn2)c1 [Example 43]", "Measure": "IC50", "Reported Measurement": 1.4}

----------
# collection of pIC50 values tested on GSK 3α (Homo sapiens (Human))
# Sequence (P49840 whole entry): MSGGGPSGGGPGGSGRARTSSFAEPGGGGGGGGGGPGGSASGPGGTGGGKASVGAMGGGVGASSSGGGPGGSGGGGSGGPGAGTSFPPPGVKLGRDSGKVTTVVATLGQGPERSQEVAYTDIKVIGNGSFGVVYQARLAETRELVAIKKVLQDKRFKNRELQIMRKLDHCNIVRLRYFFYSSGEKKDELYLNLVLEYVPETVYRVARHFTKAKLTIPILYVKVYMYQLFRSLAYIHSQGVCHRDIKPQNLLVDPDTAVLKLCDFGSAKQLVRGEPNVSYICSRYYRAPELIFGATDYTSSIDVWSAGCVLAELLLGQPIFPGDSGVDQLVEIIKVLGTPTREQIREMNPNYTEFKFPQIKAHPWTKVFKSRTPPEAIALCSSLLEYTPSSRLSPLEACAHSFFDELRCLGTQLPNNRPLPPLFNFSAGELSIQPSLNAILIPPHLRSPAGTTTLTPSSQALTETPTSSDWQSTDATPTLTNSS
pIC50: −log10 of the molar value.
Measure: pIC50

{"Compound": "COCCOCCOCCOc1cc(Nc2cc(Oc3ccc(NC(=O)Nc4cc(C(C)(C)C)cc(CP(C)(C)=O)c4OC)c4ccccc34)ccn2)cc(OC)c1 [Example 29]", "Relation Sign": "=", "Reported Measurement": 5.26}
{"Compound": "Cc1c(NC(=O)Nc2ccc(Oc3ccnc(Nc4ccccc4)c3)c3ccccc23)cc(C(C)(C)C)cc1P(C)(C)=O [15(ap)]", "Relation Sign": "<", "Reported Measurement": 4.77}
{"Compound": "COc1c(NC(=O)Nc2ccc(Oc3ccnc(Nc4cnn(C)n4)n3)c3ccccc23)cc(C(C)(C)C)cc1P(C)(C)=O [15(x)]", "Relation Sign": "=", "Reported Measurement": 5.33}
{"Compound": "COc1cc(Nc2cc(Oc3ccc(NC(=O)Nc4cc(C(C)(C)C)cc(OCC(CO)(CO)CO)c4OC)c4ccccc34)ccn2)cc(C(N)=O)c1 [Example 67]", "Relation Sign": "=", "Reported Measurement": 5.37}
{"Compound": "COc1cc(Nc2cc(Oc3ccc(NC(=O)Nc4cc(C(C)(C)C)cc(CNC(C)=O)c4OC)c4ccccc34)ccn2)cc(OC)c1 [Example 44]", "Relation Sign": "<", "Reported Measurement": 4.82}
{"Compound": "COc1c(NC(=O)Nc2ccc(Oc3ccnc(Nc4ccccc4)c3)c3ccccc23)cc(C(C)(C)C)cc1C(=O)NCCN1CCCC1 [15(ag)]", "Relation Sign": "=", "Reported Measurement": 5.24}
{"Compound": "COc1cncc(Nc2cc(Oc3ccc(NC(=O)Nc4cc(C(C)(C)C)cc(P(C)(C)=O)c4OC)c4ccccc34)ccn2)c1 [Example 34]", "Relation Sign": "=", "Reported Measurement": 5.80}
{"Compound": "COc1c(NC(=O)Nc2ccc(Oc3ccnc(Nc4cnn(C)c4)n3)c3ccccc23)cc(C(C)(C)C)cc1P(C)(C)=O [15(s)]", "Relation Sign": "=", "Reported Measurement": 6.62}
{"Compound": "COc1c(CNS(C)(=O)=O)cc(C(C)(C)C)cc1NC(=O)Nc1ccc(Oc2ccnc(Nc3ccccc3)c2)c2ccccc12 [15(aq)]", "Relation Sign": "=", "Reported Measurement": 5.48}
{"Compound": "COc1c(NC(=O)Nc2ccc(Oc3ccnc(NCc4ccccn4)c3)c3ccccc23)cc(C(C)(C)C)cc1P(C)(C)=O [38(e)]", "Relation Sign": "=", "Reported Measurement": 5.70}
{"Compound": "COc1cc(Nc2cc(Oc3ccc(NC(=O)Nc4cc(C(C)(C)C)cc([S+](C)[O-])c4OC)c4ccccc34)ccn2)cc(OC)c1 (stereo not shown) [Example 40]", "Relation Sign": "<", "Reported Measurement": 4.82}
{"Compound": "COc1c(NC(=O)Nc2ccc(Oc3ccnc(NC(=O)CN4C[C@@H](C)O[C@@H](C)C4)c3)c3ccccc23)cc(C(C)(C)C)cc1P(C)(C)=O [Example 26]", "Relation Sign": "=", "Reported Measurement": 6.60}
{"Compound": "COCCOCCOCCOc1cc(Nc2nccc(Oc3ccc(NC(=O)Nc4cc(C(C)(C)C)cc(CC(N)=O)c4OC)c4ccccc34)n2)cc(OC)c1 [15(c)]", "Relation Sign": "=", "Reported Measurement": 6.07}
